# Test Method Notes: NCI Yeast Anticancer Drug Screen. Data for the bub3 strain (AID 167)
# Condition Context: S. cerevisiae bub3 mutant strain, at 50.0 µM, hits give high values
This is part of a sample that, as a whole, favours compounds with a hit. Of some 79,000 tested, about 15% had one in any assay.
Endpoint Label: growth inhibition (%)
Return type: number; implicit unit %.

Examples with their reported growth inhibition follow.
Bench note: what growth inhibition did CC(=O)/C(N=Nc1ccc(S(=O)(=O)c2ccc(N=N/C(C(C)=O)=C(/C)O)cc2)cc1)=C(\C)O show?
-20.6

Same lookup for Clc1ccccc1C(Nc1nc2ccccc2s1)Nc1nc2ccccc2s1 , please.
-2

***
Bench note: what growth inhibition did Oc1ccc2c(c1)c1ccccc1c1ncccc21 show?
9.35

Same lookup for O=[N+]([O-])c1ccc(C(O)(C#CCN2CCCC2)c2ccccc2)cc1 (centres undefined) , please.
3.5

Same lookup for NNC(=Nc1ccccc1)SCc1ccccc1 , please.
20.2

Same lookup for COC1(C)CNc2ccccc2C(=O)N1 (centres undefined) , please.
23.1

Same lookup for O=C(N/N=C\c1coc([N+](=O)[O-])c1)N/N=C/c1ccoc1 , please.
-8.35

Same lookup for ClC1(c2ccccc2)c2ccccc2C(Cl)(c2ccccc2)c2ccccc21 (centres undefined) , please.
12.2

Same lookup for CN(C)C(=S)/N=c1\ssc(=S)n1Cc1ccccc1 , please.
-17.9

Same lookup for CC(=O)C1=C(c2ccccc2)N(C2OC(CO)C(O)C(O)C2O)C(S)=C(C#N)C1c1ccc(Cl)cc1 (centres undefined) , please.
25.1

Same lookup for ClCCCN1CCN(CCCCl)CC1 , please.
80.5

Same lookup for O=C1c2cccnc2-c2ncccc21 , please.
5.4

Same lookup for COc1nc(NC2OC(CO)C(O)C(O)C2O)c(C(C)=O)c(=O)n1C (centres undefined) , please.
-6.25

Same lookup for O=C(Nc1ccc(NC(=O)OCc2ccccc2)c(Cl)c1)OCc1ccccc1 , please.
6.3

Same lookup for CCC(CC)COC(=O)CC(CC(=O)OCC(CC)CC)C(=O)OCC(CC)CC , please.
1.1

Same lookup for COc1cc(/C=C2/C(=O)N(C(=O)c3ccc(Cl)cc3)N=C2C)cc(OC)c1OC , please.
24.6

Same lookup for CCOCCC(O)CC (centres undefined) , please.
9.8

Numbers sourced from PubChem BioAssay (NCI).
